The values you see were collected from PubChem BioAssay (NCI).

Tested on: HCC-2998 colon
assayComment: NCI-60 one-dose screen, 48 h
protocolConditions: 10 µM
The panel holds about 83,000 compounds, 20% with a hit somewhere; the sample as a whole holds those more often. Active and inactive are the calls of the source. The calls were made as follows: active = growth percent below 10; inactive = the rest.
Give your call using only these classes: true (1) (active), false (0) (inactive)

Consider the worked cases shown below.
compound=COc1ccc(OC)c(-c2cc(-c3c[nH]c4ccccc34)nc(N)c2C#N)c1 classname="true (1)"
compound="COc1ccccc1[C@H]1C(C(=O)c2ccc(O)cc2)C2(N[C@@H]1c1ccccc1)C(=O)Nc1ccc(Br)cc12 (some centres undefined)" classname="true (1)"
compound=Brc1ccc(N/N=C/c2c[nH]c3ccccc23)nc1 classname="true (1)"
compound=COC1=C[C@@]23CCC(=O)N2CCc2cc4c(cc2[C@H]3[C@H]1OC(=O)C(C)(C)O)OCO4 classname="false (0)"
compound=COc1cccc(/C=N/NC(=O)c2ccc3nc(-c4ccc(Cl)cc4)[nH]c3c2)c1O classname="true (1)"

**Query** Which result was noted for this compound in the test: Cc1ccc(S(=O)(=O)c2nc(-c3ccccc3)oc2S(=O)(=O)CC(=O)N2CCCC2)cc1
**Result** true (1)

**Query** Could you check what this test reported for Cc1ccc(/C(N)=N/c2sc(-c3ccccc3)nc2-c2ccccc2)cc1 ?
**Result** false (0)

**Query** Assay outcome for O=C(Cc1ccc2c(c1)CN(C1CCC(=O)NC1=O)C2=O)NCCc1ccccc1 (centres undefined) : what was it?
**Result** true (1)

**Query** Look up the recorded call for CCCn1c(=O)c2[nH]c(-c3ccc(OCc4nc5ccc(C(F)(F)F)cc5[nH]4)cc3)nc2n(CCC)c1=O in this test.
**Result** false (0)

* * *

System: SNB-75 CNS
assayComment: NCI-60 one-dose screen, 48 h (100 = growth as untreated, 0 = no growth, -100 = all killed)
protocolConditions: 10 µM
This is part of a sample that, as a whole, favours compounds with a hit. Of some 83,000 tested, about 20% had one in any assay.
valueKind: growth (%)
Write the number in % without appending the unit.

Below, 2 compounds whose answers are already recorded.
smilesstring=COc1cc2oc(-c3cccc(C(=O)Nc4ccc(Cl)cc4)c3)cc(=O)c2c(OCCNC(=O)CNC(=O)OC(C)(C)C)c1OC valuekind=growth unitname=% resultvalue=74.9
smilesstring=O=C(CSc1nnc(-c2c[nH]c3ccccc23)n1-c1ccccc1)c1ccccc1 valuekind=growth unitname=% resultvalue=100

**Query** Return growth for the following compound: O=S(=O)(Nc1ncccn1)c1ccc(-n2c(-c3ccc(Br)cc3)nc(-c3ccccc3)c2-c2ccccc2)cc1
**Result** 26.5

**Query** Output measured growth for this item: Cc1noc2c(Cc3ccc([N+](=O)[O-])cc3)nn(CC(=O)N/N=C/c3ccc(Cl)cc3)c(=O)c12
**Result** 44.9

* * *

Test system: NCI-H460 lung
assayComment: NCI-60 one-dose screen, 48 h
protocolConditions: 10 µM
This is part of a sample that, as a whole, favours compounds with a hit. Of some 83,000 tested, about 20% had one in any assay. Calls of active or inactive are those of the source. Rule for the calls: active = growth percent below 10; inactive = the rest.
Select the correct class. Options are 1.0 = active, 0.0 = inactive and nothing else.

As a guide, the following entries are already answered.
compound=O=C(Cn1nc(-c2ccccc2)ccc1=O)NN1C(=O)c2ccccc2C1=O targetortestsystem="NCI-H460 lung" classname=0.0
compound=Cc1cc(=O)oc2cc(OCCCCOc3ccc(/C=C/C(=O)Nc4cccc(Cl)c4)cc3)ccc12 targetortestsystem="NCI-H460 lung" classname=0.0

**Query** Recorded call for COc1ccc(-c2nc(-c3ccccc3)c(-c3ccccc3)n2-c2ccc(S(=O)(=O)Nc3ncccn3)cc2)cc1OC ?
**Result** 0.0
